target: Cytochrome P450 1A2 (Homo sapiens); assay: Cytochrome P450 Family 1 Subfamily A Member 2 (CYP1A2) small molecule antagonists: luciferase reporter qHTS assay (AID 1671199); settings: P450-Glo CYP1A2 enzyme, luciferin luminescence, 1 h; series mostly up to 115 µM; also: nearly all actives have a fitted effect of over 50% in size
Results filed as inconclusive are left out. Active and inactive are the calls of the source. Calls follow the shape of the dose curve; as a rule, active = well fitted inhibition curve with a large enough effect in the repeat runs; inconclusive = weak or mixed curves; inactive = no such curve, though single readings can be large or run the other way.
Tick one outcome: 1 (active), -1 (inactive)

Call for entry CNC(=O)Oc1ccccc1OC(C)C :
1

Call for entry O=c1[nH]c(=O)[nH]c(=O)[nH]1 :
-1

Call for entry CCN(CC)c1ccccc1 :
-1

Call for entry O=[N+]([O-])c1ccc([As](=O)(O)O)cc1 :
-1

Call for entry O=C(NC(=O)c1c(F)cccc1F)Nc1cc(Cl)c(OC(F)(F)C(F)C(F)(F)F)cc1Cl (stereo not drawn) :
-1

Call for entry O=NN1CCCCCCC1 :
-1

Call for entry Clc1ccccc1Cl :
-1

Call for entry COC(=O)NC(=S)Nc1ccccc1NC(=S)NC(=O)OC :
1

Call for entry CN=C=S :
1

Call for entry CC(C#N)CCC#N (stereo not drawn) :
-1

Call for entry CC(C)NC(=O)N1CC(=O)N(c2cc(Cl)cc(Cl)c2)C1=O :
1

Call for entry CC(=O)C=C(C)C :
-1

Call for entry CN(C)CCO :
-1

Call for entry CCCCCCCCCCCC#N :
-1

Call for entry CC(C)(C)OOC(=O)c1ccccc1 :
-1

Call for entry CCCN(CCC)N=O :
-1

Call for entry CC(C)N1C(=O)c2ccccc2NS1(=O)=O :
-1

Call for entry OC(O)C(Cl)(Cl)Cl :
-1

Call for entry O=S(=O)(c1ccc(O)cc1)c1ccc(O)cc1 :
-1

Call for entry NCC(O)c1ccc(O)cc1 (stereo not drawn) :
-1

Call for entry CCC12COCN1COC2 :
-1

Call for entry COP(N)(=O)SC (stereo not drawn) :
-1

Call for entry CC(C)C#N :
-1

Call for entry c1ccc(-c2ccccc2)cc1 :
-1

Call for entry Clc1ccc(Cl)cc1 :
-1

Call for entry O=C1CCCN1 :
-1

Call for entry CN(C)N=O :
-1

Call for entry C[C@]12CC[C@H]3[C@@H](CC[C@@]45O[C@@H]4C(O)=C(C#N)C[C@]35C)[C@@H]1CC[C@@H]2O :
-1

Call for entry CCCCCCCCCl :
-1

Call for entry Cc1ccc([N+](=O)[O-])cc1C :
-1

Call for entry Cc1ccccc1O :
1

Call for entry O=[N+]([O-])c1ccccc1 :
-1

Call for entry C1CN2CCN1CC2 :
-1

Call for entry CC(NC(C)(C)C)C(=O)c1cccc(Cl)c1 (stereo not drawn) :
-1

Call for entry Nc1ccc(Oc2ccc(N)cc2)cc1 :
-1

Call for entry O=C(O)c1ccccn1 :
-1

Call for entry [O-][Cl+2]([O-])O :
-1

Call for entry CC(Oc1ccc(Cl)cc1Cl)C(=O)O (stereo not drawn) :
-1
